Reference source for all entries: patent US20210388087A1

Assayed Target: T1, CD3 epsilon homodimer protein (UniProt P07766 23-126)
T1 construct: also called CD3 (CD3 epsilon)
T1 sequence (P07766 23-126): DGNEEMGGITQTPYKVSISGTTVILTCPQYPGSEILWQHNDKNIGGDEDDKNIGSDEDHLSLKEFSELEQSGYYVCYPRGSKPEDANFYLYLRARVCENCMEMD
Protocol Notes: SPR Biacore T200, CD3e homodimer on chip, vs unaltered GLS3000 antibody
Assay Metric: ratio of amounts bound (Z=Y/X)

>  <Binder>
GLS3000 Q93R (antibody, name in Kabat numbering, V domains shown, one-arm IgG as m2) VH: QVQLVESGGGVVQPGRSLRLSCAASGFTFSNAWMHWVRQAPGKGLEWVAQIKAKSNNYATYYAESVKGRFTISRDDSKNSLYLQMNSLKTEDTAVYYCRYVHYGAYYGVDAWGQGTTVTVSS VL: DIVMTQSPLSLPVTPGEPASISCRSSQSLVHSNRNTYLHWYQQKPGQAPRLLIYKVSNRFSGVPDRFSGSGSGTDFTLKISRVEAEDVGVYYCGQGTRVPYTFGQGTKLEIK

>  <Observed Value>
1.13

$$$$
>  <Binder>
GLS3000 H34E (antibody, name in Kabat numbering, V domains shown, one-arm IgG as m2) VH: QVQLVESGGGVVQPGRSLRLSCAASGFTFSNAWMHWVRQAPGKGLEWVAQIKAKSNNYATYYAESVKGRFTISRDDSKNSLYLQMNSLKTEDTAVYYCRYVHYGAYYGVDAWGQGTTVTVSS VL: DIVMTQSPLSLPVTPGEPASISCRSSQSLVHSNRNTYLEWYQQKPGQAPRLLIYKVSNRFSGVPDRFSGSGSGTDFTLKISRVEAEDVGVYYCGQGTQVPYTFGQGTKLEIK

>  <Observed Value>
0.23

$$$$
